Where do these numbers come from? They come from patent US20190119389A1.

Catalogue of pKd readings, one per entry.
- measured-target: T1, Mouse NRP-1 His (mouse, UniProt P97333 22-856)
- T1 construct: Recombinant monomeric protein; also called mNRP-1; not shown: His tag
- T1 sequence (P97333 22-856 limits assumed): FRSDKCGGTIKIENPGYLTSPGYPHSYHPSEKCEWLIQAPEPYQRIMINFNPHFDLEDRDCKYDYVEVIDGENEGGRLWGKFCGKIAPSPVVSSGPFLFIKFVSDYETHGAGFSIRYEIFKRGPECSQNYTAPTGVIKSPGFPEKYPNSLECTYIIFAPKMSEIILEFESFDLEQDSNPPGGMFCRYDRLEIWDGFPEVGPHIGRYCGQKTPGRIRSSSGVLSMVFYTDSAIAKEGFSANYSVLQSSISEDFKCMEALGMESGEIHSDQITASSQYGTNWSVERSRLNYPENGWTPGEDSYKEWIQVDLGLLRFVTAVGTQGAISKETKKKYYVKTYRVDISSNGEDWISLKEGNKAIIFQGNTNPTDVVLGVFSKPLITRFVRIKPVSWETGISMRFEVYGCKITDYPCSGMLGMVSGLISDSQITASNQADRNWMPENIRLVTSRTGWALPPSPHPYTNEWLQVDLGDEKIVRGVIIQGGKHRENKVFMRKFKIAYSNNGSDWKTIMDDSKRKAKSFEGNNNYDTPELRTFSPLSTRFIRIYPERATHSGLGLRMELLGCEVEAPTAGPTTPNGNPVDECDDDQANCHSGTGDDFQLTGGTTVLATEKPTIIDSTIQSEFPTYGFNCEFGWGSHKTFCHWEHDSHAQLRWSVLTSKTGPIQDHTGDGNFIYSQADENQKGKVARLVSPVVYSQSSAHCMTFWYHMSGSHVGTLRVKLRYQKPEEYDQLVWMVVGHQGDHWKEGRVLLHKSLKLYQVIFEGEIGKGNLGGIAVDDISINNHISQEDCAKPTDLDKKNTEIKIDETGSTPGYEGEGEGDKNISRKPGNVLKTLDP
- experiment-description: BLI Octet QKe, IgG4 S228P on AHC sensor, multi-concentration monomeric antigen, global 1:1 fit
pKd is defined as minus the log10 of a concentration measured in mol/L.

Consider the worked cases shown below.
Given item MAB3 IgG4 S228P (antibody, V domains shown) VH: QAQLVQSGAEVKKPGASVKVSCKASGYTFSRYYMHWVRQAPGQGLEWMGIINPLGGSTLYAQKFQGRVTMTRDTSTSTVYMELSSLRSEDTAVYYCARDLGYYGSGMHAWGQGTLVTVSS VL: DIQMTQSPSSVSASVGDRVTITCRASQGISRWLAWYQQKPGKAPKLLIYAASSLQSGVPSRFSGSGSGTDFTLTISSLQPEDFATYYCQQANLLPFTFGGGTKVEIKR , the value recorded as its pKd is 8.36

# binder MAB12 IgG4 S228P (antibody, V domains shown) VH: EVQLLESGGGLVQPGGSLRLSCAASGFTFSSVAMVWVRQAPGKGLEWVSAISGSGGATYYADSVEGRFTISRDNSKNTLYLQMNSLRAEDTAVYYCAKDPGYDSSRYYYSNYGMDVWGQGTTVTVSS VL: DIQMTQSPSSLSASVGDRVTITCRASQSISSYLNWYQQKPGKAPKLLIYGASSLQSGVPSRFSGSGSGTDFTLTISSLQPEDFATYYCQQTYSLYTFGGGTKVEIKR ; its pKd = 9.80

We now examine a further binder.
Looking up MAB2 IgG4 S228P (antibody, V domains shown) VH: QVQLVQSGAEVKKPGASVKVSCKASGYTFRSYYMLWVRQAPGQGLEWMGIIDPSDGSTSYAQKFQGRVTMTRDASTSTVYMELSSLRSEDTAVYYCARGARRITGYGMDVWGQGTTVIVSS VL: DIQMTQSPSSVSASVGDRVTITCRASQGISSWLAWYQQKPGKAPKLLIYAASNLQSGVPSRFSGSGSGTDFTLTISSLQPEDFATYYCQQASVFPFTFGGGTKVEIKR , I found its pKd recorded as 8.29
